PROCEDURE_DETAILS: Half life in Alzheimer's disease patient at 2 mg/ml, po
Format: ADME
RUN_CONDITIONS: human, in vivo
MEASURED_QUANTITY: half-life

Report half-life, nothing else, for this compound: CC12CC3CC(C)(C1)CC(N)(C3)C2 [MEMANTINE]
60 to 100 h

---

TARGET_OF_ASSAY: Glutamate [NMDA] receptor
PROCEDURE_DETAILS: Inhibition of NMDA receptor (unknown origin)
Assay type: protein-complex assay, Homo sapiens
MEASURED_QUANTITY: IC50 (µM)
All answers are understood in µM, so give the number only.

// fetch IC50 given entry `Cc1ccc2[nH]c3c(c2c1)CN(CCCCCN1CCc2[nH]c4ccc(C)cc4c2C1)CC3`
11

---

TARGET_OF_ASSAY: cGMP-dependent 3',5'-cyclic phosphodiesterase (Homo sapiens, UniProt O00408)
Sequence (O00408 whole entry): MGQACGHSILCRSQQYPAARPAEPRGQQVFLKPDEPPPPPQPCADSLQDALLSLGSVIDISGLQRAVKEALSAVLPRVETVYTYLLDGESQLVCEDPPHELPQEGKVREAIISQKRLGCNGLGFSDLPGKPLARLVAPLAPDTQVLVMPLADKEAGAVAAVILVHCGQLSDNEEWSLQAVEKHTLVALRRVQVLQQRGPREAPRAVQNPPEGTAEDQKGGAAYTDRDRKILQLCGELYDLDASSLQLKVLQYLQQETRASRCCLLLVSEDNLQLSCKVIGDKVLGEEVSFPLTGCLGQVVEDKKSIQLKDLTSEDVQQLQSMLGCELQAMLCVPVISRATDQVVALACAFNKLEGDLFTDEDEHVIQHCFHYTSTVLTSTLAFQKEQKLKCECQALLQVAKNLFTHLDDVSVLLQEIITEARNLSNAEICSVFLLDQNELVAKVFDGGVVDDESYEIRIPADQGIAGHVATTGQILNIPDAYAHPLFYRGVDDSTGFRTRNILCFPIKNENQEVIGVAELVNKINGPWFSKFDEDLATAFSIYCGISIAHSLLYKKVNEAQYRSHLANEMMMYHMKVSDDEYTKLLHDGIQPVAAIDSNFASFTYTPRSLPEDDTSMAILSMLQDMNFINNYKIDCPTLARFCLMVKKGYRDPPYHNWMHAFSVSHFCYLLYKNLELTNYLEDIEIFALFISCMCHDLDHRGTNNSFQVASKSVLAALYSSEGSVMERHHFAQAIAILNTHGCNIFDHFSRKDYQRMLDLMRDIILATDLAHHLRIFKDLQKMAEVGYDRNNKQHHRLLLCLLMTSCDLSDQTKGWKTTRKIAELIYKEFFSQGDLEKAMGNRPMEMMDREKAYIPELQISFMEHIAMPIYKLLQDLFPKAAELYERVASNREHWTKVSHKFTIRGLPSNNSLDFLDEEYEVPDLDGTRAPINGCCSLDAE
PROCEDURE_DETAILS: Inhibition of PDE2A1 (unknown origin) by immobilized metal ion affinity-based fluorescence polarization
MEASURED_QUANTITY: IC50

Give me measured IC50, please, for this compound: `O=C1[C@H]2Cc3c([nH]c4ccccc34)[C@@H](c3ccc4c(c3)OCO4)N2C(=O)CN1CCC1CCN(Cc2ccccc2)CC1`
> 100 µM

---

TARGET_OF_ASSAY: UniProtKB P56817
PROCEDURE_DETAILS: Inhibition of BACE-1 (unknown origin)
pIC50 values for the compounds below.
pIC50 is a log-scale quantity: -log10 of the concentration expressed in molar.

> print(dat)
                                   compound  numeric.readout
1  COc1cc(/C=C/C(O)=C/C(=O)/C=C/c2ccc(OCc3ccccc3)cc2)ccc1O             5.60

Field: next compound
Tell me pIC50 reported for OC(CNCc1cccc(OCc2ccccc2)c1)Cn1cc(Br)c2cc(Br)ccc21 (configuration not stated)
6.01

---

TARGET_OF_ASSAY: UniProt:P81908
Sequence (P81908 whole entry): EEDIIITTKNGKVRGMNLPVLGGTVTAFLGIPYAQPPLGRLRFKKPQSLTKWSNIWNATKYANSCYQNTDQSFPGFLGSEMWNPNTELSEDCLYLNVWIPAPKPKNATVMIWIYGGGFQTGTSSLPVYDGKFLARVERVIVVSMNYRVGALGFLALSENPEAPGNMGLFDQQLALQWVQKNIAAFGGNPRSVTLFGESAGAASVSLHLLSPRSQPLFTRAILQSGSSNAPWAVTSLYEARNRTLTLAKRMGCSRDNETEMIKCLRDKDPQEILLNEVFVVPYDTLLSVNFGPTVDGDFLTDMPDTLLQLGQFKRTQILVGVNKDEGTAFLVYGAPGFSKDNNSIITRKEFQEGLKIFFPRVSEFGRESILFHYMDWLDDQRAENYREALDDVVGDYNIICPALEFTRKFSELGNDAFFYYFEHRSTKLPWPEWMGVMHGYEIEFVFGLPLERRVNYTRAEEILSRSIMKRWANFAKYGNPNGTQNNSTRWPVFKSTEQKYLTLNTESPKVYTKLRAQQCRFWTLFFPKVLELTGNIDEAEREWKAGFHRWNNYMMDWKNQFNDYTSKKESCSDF
PROCEDURE_DETAILS: Inhibition of equine serum BChE using butyrylthiocholine iodide as substrate preincubated for 10 mins followed by substrate addition by Ellman's method
MEASURED_QUANTITY: pIC50
Quick note: pIC50 means taking -log10 of the concentration in moles per liter.

Retrieve pIC50 on UniProt:P81908; query `CCN1CCc2c(c3ccccc3n2CCC(=O)N2c3ccccc3Sc3ccccc32)C1`
6.28

---

TARGET_OF_ASSAY: Amine oxidase [flavin-containing] B (Homo sapiens)
Sequence (P27338 whole entry): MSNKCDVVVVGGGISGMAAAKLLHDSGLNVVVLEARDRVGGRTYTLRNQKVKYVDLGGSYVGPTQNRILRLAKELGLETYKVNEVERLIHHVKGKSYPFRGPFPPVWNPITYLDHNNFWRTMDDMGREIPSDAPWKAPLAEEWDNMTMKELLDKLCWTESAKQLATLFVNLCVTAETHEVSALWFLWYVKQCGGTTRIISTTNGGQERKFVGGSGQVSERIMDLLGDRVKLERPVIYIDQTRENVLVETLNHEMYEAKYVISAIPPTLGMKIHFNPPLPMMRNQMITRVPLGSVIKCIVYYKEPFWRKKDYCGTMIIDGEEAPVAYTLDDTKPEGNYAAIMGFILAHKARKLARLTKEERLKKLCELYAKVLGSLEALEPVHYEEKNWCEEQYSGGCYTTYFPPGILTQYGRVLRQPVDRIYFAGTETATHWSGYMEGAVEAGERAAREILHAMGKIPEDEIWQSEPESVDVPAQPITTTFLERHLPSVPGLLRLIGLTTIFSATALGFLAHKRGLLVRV
PROCEDURE_DETAILS: Irreversible inhibition of MAOB (unknown origin)
MEASURED_QUANTITY: IC50
Give me the value, and tack the unit on after it.

> print(dat)
                  smiles.text                           target.of.assay   result
1  C#CCN(C)Cc1ccc(O)c2ncccc12  Amine oxidase [flavin-containing] B (Homo sapiens)  10.2 µM

# next compound below
Supply recorded IC50 for `COc1ccc2[nH]c3nc4c(c(N)c3c2c1)CCCC4` here.
53.9 µM

---

TARGET_OF_ASSAY: Beta-secretase 1 (Homo sapiens)
Sequence (P56817 whole entry): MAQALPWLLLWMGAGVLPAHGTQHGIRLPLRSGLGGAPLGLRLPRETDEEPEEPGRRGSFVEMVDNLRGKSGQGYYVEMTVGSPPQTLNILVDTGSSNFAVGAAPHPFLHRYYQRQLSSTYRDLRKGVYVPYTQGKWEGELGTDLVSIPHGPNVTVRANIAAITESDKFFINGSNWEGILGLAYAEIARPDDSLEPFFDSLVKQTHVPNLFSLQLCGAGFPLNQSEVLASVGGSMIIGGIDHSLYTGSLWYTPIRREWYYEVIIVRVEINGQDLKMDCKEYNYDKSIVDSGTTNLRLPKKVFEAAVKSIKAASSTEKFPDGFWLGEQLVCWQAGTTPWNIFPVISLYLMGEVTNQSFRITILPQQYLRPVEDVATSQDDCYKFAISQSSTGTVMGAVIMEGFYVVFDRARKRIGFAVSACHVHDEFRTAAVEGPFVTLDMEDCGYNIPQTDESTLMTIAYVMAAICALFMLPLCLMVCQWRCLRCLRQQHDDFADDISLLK
PROCEDURE_DETAILS: Inhibition of BACE-1 (unknown origin) after 60 mins by FRET assay
MEASURED_QUANTITY: pIC50
pIC50 field: float, defined as -log10 of concentration (mol/L).

Report pIC50, nothing else, for this molecule: `COc1ccc(CNC(=O)C2CCN(C(=O)c3ccccc3)CC2)cc1OC`
7.74
